# Tested on: SF-539 CNS
# Assay Summary: NCI-60 one-dose screen, 48 h (100 = growth as untreated, 0 = no growth, -100 = all killed)
# Experimental Conditions: 10 µM unless noted
# Description: Cells are grown in 96 well plates and exposed to the test compound for 48 hours. Compounds are tested at a single concentration, which is 10^-5 M for most compounds. The reported endpoint is percent growth (GI% or GIPRCNT), where numbers from 0 - 100% represent growth inhibition, and numbers from -100% - 0 represent cell death. For example, a value of 40 represents 60% growth inhibition. A value of 0 means no net growth occurred over the course of the experiment. […]
About 83,000 compounds went through this panel and 20% of them were active in at least one assay; those are over-represented in the sample as a whole.

>  <Compound>
O=C(Nc1ncc([N+](=O)[O-])s1)c1cccc([N+](=O)[O-])c1

>  <growth / %>
28.4

$$$$
>  <Compound>
COc1ccc2c(c1)C(=O)c1c-2c(OCCN(C)C)nc2cc(OC)ccc12

>  <growth / %>
15

$$$$
>  <Compound>
CCOc1cc(C(C)(C)C)ccc1C1=N[C@H](c2ccc(Cl)cc2)[C@H](c2ccc(Cl)cc2)N1C(=O)N1CCN(CC#Cc2cccc3c2CN([C@@H]2CCC(=O)NC2=O)C3=O)CC1

>  <growth / %>
70.3

$$$$
>  <Compound>
CCOC(Cc1c(N)[nH]c(=S)[nH]c1=O)OCC

>  <growth / %>
99.4

$$$$
>  <Compound>
CCC(c1ccccc1)c1noc(CCN(CC)CC)n1 (centres undefined)

>  <growth / %>
101

$$$$
>  <Compound>
O=C(Nc1ccc(Cl)cc1)Nc1ccc(Oc2nncc3ccccc23)cc1

>  <growth / %>
-76.5

$$$$
>  <Compound>
COc1ccc(-c2cc(Cc3cccs3)c(=O)n(Cn3ccc4ccccc43)n2)cc1

>  <growth / %>
101

$$$$
>  <Compound>
O=C(CCc1nnc(Cn2ccnc2)o1)c1nc2ccccc2[nH]1

>  <growth / %>
100

$$$$
>  <Compound>
COc1cc(-c2cc(C(=O)Nc3nc4ccccc4s3)nc3cc(-c4ccccc4)nn23)cc(OC)c1OC

>  <growth / %>
4.14

$$$$

---

# System: EKVX NSCLC
# Assay Summary: NCI-60 one-dose screen, 48 h
# Experimental Conditions: 10 µM unless noted
The panel holds about 83,000 compounds, 20% with a hit somewhere; the sample as a whole holds those more often. Calls of active or inactive are those of the source. The calls were made as follows: active = growth percent below 10; inactive = the rest.
Possible outcomes: active, inactive

>  <Compound>
Nc1cc(Cl)c(S(N)(=O)=O)cc1S(N)(=O)=O

>  <Test Target>
EKVX NSCLC

>  <Answer Label>
inactive

$$$$
>  <Compound>
O=C(CCc1nnc2sc(-c3ccc(Cl)cc3Cl)nn12)c1nc2ccccc2[nH]1

>  <Test Target>
EKVX NSCLC

>  <Answer Label>
active

$$$$
>  <Compound>
O=C(Nc1ccc(Cl)cc1)Nc1ccc(Oc2nncc3ccccc23)cc1

>  <Test Target>
EKVX NSCLC

>  <Answer Label>
inactive

$$$$
>  <Compound>
Nc1nc(N)c([N+](=O)[O-])c(=O)[nH]1

>  <Test Target>
EKVX NSCLC

>  <Answer Label>
inactive

$$$$
>  <Compound>
COc1cccc(/C=C2\COc3ccc(O)c(O)c3C2=O)c1OC

>  <Test Target>
EKVX NSCLC

>  <Answer Label>
inactive

$$$$
>  <Compound>
COc1ccc(/C=N/NC(=O)c2ccc(S(C)(=O)=O)cc2)cc1OC

>  <Test Target>
EKVX NSCLC

>  <Answer Label>
inactive

$$$$
>  <Compound>
Cn1c(=O)c2c(nc(Br)n2CCC(=O)Nc2ccc(F)cc2)n(C)c1=O

>  <Test Target>
EKVX NSCLC

>  <Answer Label>
inactive

$$$$
>  <Compound>
Cc1cc(NC(=O)c2ccc(N)cc2)ccc1N=Nc1ccc2c(O)c(N=Nc3ccc(Cl)c(S(=O)(=O)O)c3)c(S(=O)(=O)O)cc2c1

>  <Test Target>
EKVX NSCLC

>  <Answer Label>
inactive

$$$$
>  <Compound>
Fc1ccc(-c2nnc(/C=C/c3cn(-c4ccccc4)nc3-c3ccccc3)o2)cc1

>  <Test Target>
EKVX NSCLC

>  <Answer Label>
inactive

$$$$
>  <Compound>
O=C1CC(C(F)(F)F)=NN1C(=O)c1nn(-c2ccc(Cl)cc2)cc1O

>  <Test Target>
EKVX NSCLC

>  <Answer Label>
inactive

$$$$
>  <Compound>
COc1cc2c(cc1OC)C1CCN3C(=O)CCC3N1CC2 (stereo not drawn)

>  <Test Target>
EKVX NSCLC

>  <Answer Label>
inactive

$$$$
>  <Compound>
O=C(Cn1ccnc1)NC(c1ccccc1)c1ccccc1

>  <Test Target>
EKVX NSCLC

>  <Answer Label>
inactive

$$$$
>  <Compound>
COc1ccc2[nH]cc(/C=C3/C(=O)Nc4ccc(F)cc43)c2c1

>  <Test Target>
EKVX NSCLC

>  <Answer Label>
inactive

$$$$
>  <Compound>
CC(=O)c1cc(C(=O)c2ccc3c(c2)Sc2ccccc2N3)c2c(C)cc(C)cn12

>  <Test Target>
EKVX NSCLC

>  <Answer Label>
inactive

$$$$
>  <Compound>
Cc1c(C(N)=O)sc2c1c(=O)n(Cc1ccccc1)c1nnc(SCC(=O)Nc3ccc(Cl)cc3)n21

>  <Test Target>
EKVX NSCLC

>  <Answer Label>
inactive

$$$$
>  <Compound>
Nc1nc(SCc2ccccc2Cl)c(-c2ccccc2)c(SCc2ccccc2Cl)n1

>  <Test Target>
EKVX NSCLC

>  <Answer Label>
inactive

$$$$
>  <Compound>
C/C(=N\N1CC(=O)NC1=O)c1ccc([N+](=O)[O-])o1

>  <Test Target>
EKVX NSCLC

>  <Answer Label>
inactive

$$$$
>  <Compound>
N#CCCCCCn1c2ccccc2c2c3c(c4c5ccccc5[nH]c4c21)C(=O)N(O)C3=O

>  <Test Target>
EKVX NSCLC

>  <Answer Label>
inactive

$$$$
>  <Compound>
O=C(CSc1nc2c(n1Nc1ccccc1)-c1ccccc1SC2)Nc1nc(-c2ccc(Cl)cc2)cs1

>  <Test Target>
EKVX NSCLC

>  <Answer Label>
inactive

$$$$
>  <Compound>
CN(C)c1ccc(/C=C\c2ccnc3ccccc23)cc1

>  <Test Target>
EKVX NSCLC

>  <Answer Label>
inactive

$$$$
>  <Compound>
CCCCCCCCCCCCNc1ncnc2[nH]ncc12

>  <Test Target>
EKVX NSCLC

>  <Answer Label>
inactive

$$$$
>  <Compound>
CN1COc2ccc3ccccc3c2C1

>  <Test Target>
EKVX NSCLC

>  <Answer Label>
inactive

$$$$
>  <Compound>
Cc1cc(C(=O)O)c(C)cc1C(=O)O

>  <Test Target>
EKVX NSCLC

>  <Answer Label>
inactive

$$$$
>  <Compound>
CNc1ccc(CSc2ccc(Cl)cc2)cc1

>  <Test Target>
EKVX NSCLC

>  <Answer Label>
inactive

$$$$
>  <Compound>
COc1ccc(/C=C2\NC(=S)NC2=O)cc1

>  <Test Target>
EKVX NSCLC

>  <Answer Label>
inactive

$$$$
>  <Compound>
CN1CCN(Cc2ccc(NC(=O)c3[nH]ncc3Nc3ccnc4ccnn34)cc2)CC1

>  <Test Target>
EKVX NSCLC

>  <Answer Label>
inactive

$$$$
>  <Compound>
CCCCCCCCCCCCCCCCCC1=NC(C)(C)CN1CCO

>  <Test Target>
EKVX NSCLC

>  <Answer Label>
inactive

$$$$
>  <Compound>
COc1ccc(OC)c(NC(=O)c2cc3oc4ccccc4c3cc2O)c1

>  <Test Target>
EKVX NSCLC

>  <Answer Label>
inactive

$$$$
>  <Compound>
Cc1c(C(N)=O)sc2ncn(CC(=O)Nc3ccc(Cl)cc3)c(=O)c12

>  <Test Target>
EKVX NSCLC

>  <Answer Label>
inactive

$$$$
>  <Compound>
CCCCC1Nc2nc(SC)n(C)c(=O)c2CN(Cc2ccccc2)C1=O (stereo not drawn)

>  <Test Target>
EKVX NSCLC

>  <Answer Label>
inactive

$$$$
>  <Compound>
CN=C(NC)N/N=C(C)\C=N\NC(=NC)NC

>  <Test Target>
EKVX NSCLC

>  <Answer Label>
inactive

$$$$
>  <Compound>
CCCCCCCC/C=C/CCCCCCCC1=NC(C)(C)CN1CC(C)O (stereo not drawn)

>  <Test Target>
EKVX NSCLC

>  <Answer Label>
inactive

$$$$
>  <Compound>
COc1cc(OC)c2sc(-c3ccc(-n4cncc4-c4ccc(N)cc4)cc3)nc2c1

>  <Test Target>
EKVX NSCLC

>  <Answer Label>
inactive

$$$$
>  <Compound>
C/C(=N/N=C(N)N)c1ccc(N)cc1

>  <Test Target>
EKVX NSCLC

>  <Answer Label>
inactive

$$$$
>  <Compound>
C=C(C[C@](O)(C(=O)/C=C/c1ccc(Cl)cc1)C(=O)OC)c1ccccc1

>  <Test Target>
EKVX NSCLC

>  <Answer Label>
inactive

$$$$
>  <Compound>
CCOc1cc(C(C)(C)C)ccc1C1=N[C@H](c2ccc(Cl)cc2)[C@H](c2ccc(Cl)cc2)N1C(=O)N1CCN(CC#Cc2cccc3c2CN([C@@H]2CCC(=O)NC2=O)C3=O)CC1

>  <Test Target>
EKVX NSCLC

>  <Answer Label>
inactive

$$$$
>  <Compound>
Fc1ccc(-c2nnc(-c3c(-c4ccc(F)cc4)nc4ncccn34)o2)cc1

>  <Test Target>
EKVX NSCLC

>  <Answer Label>
inactive

$$$$
>  <Compound>
COc1ccc(/C=N\Nc2ccc([N+](=O)[O-])cn2)cc1OC

>  <Test Target>
EKVX NSCLC

>  <Answer Label>
inactive

$$$$
>  <Compound>
CC(O)c1nc2c(c(=O)n(C)c(=O)n2C)n1C (stereo not drawn)

>  <Test Target>
EKVX NSCLC

>  <Answer Label>
inactive

$$$$
>  <Compound>
O=C(Nc1cccc([N+](=O)[O-])c1)c1cccc(C(=O)Nc2cccc([N+](=O)[O-])c2)c1

>  <Test Target>
EKVX NSCLC

>  <Answer Label>
inactive

$$$$
>  <Compound>
CC12CCC3C(CCC4CC(=O)/C(=C\O)CC43C)C1CCC(=O)O2 (stereo not drawn)

>  <Test Target>
EKVX NSCLC

>  <Answer Label>
inactive

$$$$
>  <Compound>
COc1ccc(-c2cncn2-c2ccc(-c3nc4cc(OC)c(OC)c(OC)c4s3)cc2)cc1N

>  <Test Target>
EKVX NSCLC

>  <Answer Label>
inactive

$$$$
>  <Compound>
COc1ccc(-c2nn(-c3cccc(Cl)c3)cc2C2CC(c3ccccc3)=NN2C(C)=O)cc1 (stereo not drawn)

>  <Test Target>
EKVX NSCLC

>  <Answer Label>
inactive

$$$$
